All values here come from paper PMC11040118.

testedSystem: Thyroperoxidase (TPO) (Rattus norvegicus)
Sequence (P14650 32-914): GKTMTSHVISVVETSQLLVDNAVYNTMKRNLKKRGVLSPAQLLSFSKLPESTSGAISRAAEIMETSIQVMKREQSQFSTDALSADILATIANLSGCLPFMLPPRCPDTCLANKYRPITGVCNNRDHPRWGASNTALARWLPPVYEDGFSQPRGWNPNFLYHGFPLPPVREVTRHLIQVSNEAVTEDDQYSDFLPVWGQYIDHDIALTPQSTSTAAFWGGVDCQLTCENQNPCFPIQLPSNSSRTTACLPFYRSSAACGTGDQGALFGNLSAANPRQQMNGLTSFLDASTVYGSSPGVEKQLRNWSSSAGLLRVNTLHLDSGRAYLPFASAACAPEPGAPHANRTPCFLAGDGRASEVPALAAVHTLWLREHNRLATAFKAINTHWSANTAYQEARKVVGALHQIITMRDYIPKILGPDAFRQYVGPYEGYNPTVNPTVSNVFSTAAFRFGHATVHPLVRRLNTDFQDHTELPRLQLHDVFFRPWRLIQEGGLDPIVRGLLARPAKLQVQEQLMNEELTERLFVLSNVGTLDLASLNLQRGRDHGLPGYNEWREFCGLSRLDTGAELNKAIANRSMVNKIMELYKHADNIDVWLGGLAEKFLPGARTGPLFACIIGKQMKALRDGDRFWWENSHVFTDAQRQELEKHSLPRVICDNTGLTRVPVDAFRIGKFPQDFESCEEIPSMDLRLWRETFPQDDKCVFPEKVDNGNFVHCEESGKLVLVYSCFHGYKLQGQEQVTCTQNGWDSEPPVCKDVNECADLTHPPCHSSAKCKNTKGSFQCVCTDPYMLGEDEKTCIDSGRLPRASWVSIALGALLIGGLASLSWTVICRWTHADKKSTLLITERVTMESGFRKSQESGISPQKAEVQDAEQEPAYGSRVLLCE
Format: biochemical
measurementSetup: Log10 Value of AVG IC50, L-Tyr to MIT, from average IC50, Table 1
endpoint: IC50 (µM)

Worked examples, 3 molecules total:
>>> measvalue("CC[C@H](c1ccc(O)cc1)[C@@H](CC)c1ccc(O)cc1 [Hexestrol]")
7.94
>>> measvalue("Oc1ccc(OCc2ccccc2)cc1 [4-Benzyloxy phenol, 4-Benzyloxyphenol]")
8.91
>>> measvalue("O=C(O)c1cc(O)c(O)c(O)c1 [Gallic acid hydrate]")
0.813

1. O=c1c(O)c(-c2ccc(O)cc2)oc2cc(O)cc(O)c12 [Kaemferol, Kaempferol]
2. COc1cc(CCC(=O)CC(=O)CCc2ccc(O)c(OC)c2)ccc1O [Tetrahydro curcumin, Tetrahydrocurcumin]
Q) // which entry reports the smaller IC50, 1 or 2 ? In your reply, give the label of the chosen option.
A) 2
(2: 1.55 µM, 1: 5.01 µM)
